biological target: T1, HLA-DR DRB1*0405 (human); assay: radioligand inhibition, purified HLA-DR; details: remark: other sources report otherwise
T1 chain 1: not shown
T1 chain 2: not shown
A collection of binders and their measured log10(IC50)
quantity_measured: log10(IC50) (log10 of the value in nM)

INSERT INTO measurements (binder, reported_value) VALUES
  ('QYSWRINGIPQQHTQ [CEA.624 peptide 9019.0138]', 2.49),
  ('LKSGMKELAVFREKV [Peptide 9019.0185]', 1.53),
  ('ICTIDVYMIMVKCWM [Peptide 1622.04]', 2.98),
  ('GVTVWELMTFGAKPY [Peptide 9019.0090]', 3.32),
  ('RPRFRELVSEFSRMA [Peptide 9019.0095]', 2.18),
  ('FYTLHVIKSDLVNEE [CEA.119 peptide 9019.0114]', 1.61),
  ('ERGPLEHLYSLHIPN [Peptide 9019.0190]', 2.04);
